Target: ARAF WT (Homo sapiens)
Assay: PanQinase flash plate-based kinase assay

# COMPOUND, TARGET OR TEST SYSTEM, IC50, µM
rows = [
    ("Cc1ccc(NC(=O)c2ccnc(C(F)(F)F)c2)cc1-c1cc(OCCO)nc(N2CCOCC2)c1 [Naporafenib]", "ARAF WT (Homo sapiens)", 0.0635),
    ("Cc1ccc2c(Nc3cccc(Cl)c3F)nccc2c1NC(=O)c1csc2c(N)ncnc12 [Belvarafenib]", "ARAF WT (Homo sapiens)", 0.026),
]

----------
Molecular target: BRAF V600E (Homo sapiens, UniProt P15056, V600E)
Sequence (P15056 whole entry V600E): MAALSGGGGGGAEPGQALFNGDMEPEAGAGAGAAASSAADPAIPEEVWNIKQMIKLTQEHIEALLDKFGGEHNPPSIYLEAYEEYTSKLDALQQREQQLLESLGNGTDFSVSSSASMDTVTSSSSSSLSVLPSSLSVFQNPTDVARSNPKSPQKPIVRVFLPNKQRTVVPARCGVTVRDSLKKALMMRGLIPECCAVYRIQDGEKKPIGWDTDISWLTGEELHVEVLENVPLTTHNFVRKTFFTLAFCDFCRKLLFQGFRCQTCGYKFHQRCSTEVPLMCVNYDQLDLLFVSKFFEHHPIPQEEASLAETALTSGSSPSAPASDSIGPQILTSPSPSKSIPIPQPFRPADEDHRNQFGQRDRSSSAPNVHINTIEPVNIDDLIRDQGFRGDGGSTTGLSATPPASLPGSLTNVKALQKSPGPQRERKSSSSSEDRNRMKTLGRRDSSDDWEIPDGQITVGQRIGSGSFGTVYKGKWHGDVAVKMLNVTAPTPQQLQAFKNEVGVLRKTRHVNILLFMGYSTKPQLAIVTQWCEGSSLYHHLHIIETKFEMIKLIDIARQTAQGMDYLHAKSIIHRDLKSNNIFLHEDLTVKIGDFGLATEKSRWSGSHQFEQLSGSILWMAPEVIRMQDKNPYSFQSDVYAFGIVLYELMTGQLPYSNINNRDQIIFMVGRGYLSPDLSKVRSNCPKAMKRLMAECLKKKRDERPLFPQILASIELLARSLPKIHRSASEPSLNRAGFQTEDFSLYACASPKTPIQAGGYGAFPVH
Assay: PanQinase flash plate-based kinase assay
pIC50: −log10 of the molar value.

# MOLECULE, TARGET OR TEST SYSTEM, pIC50
data = [
    ("O=C1CCc2c(Oc3ccc4c(c3)CC(c3ncc(-c5ccc(F)cc5)[nH]3)CO4)ccnc2N1 (stereo not drawn) [Compound I]", "BRAF V600E (Homo sapiens, UniProt P15056, V600E)", 7.40),
    ("Cc1ccc(NC(=O)c2ccnc(C(F)(F)F)c2)cc1-c1cc(OCCO)nc(N2CCOCC2)c1 [Naporafenib]", "BRAF V600E (Homo sapiens, UniProt P15056, V600E)", 6.72),
    ("Cc1ccc2c(Nc3cccc(Cl)c3F)nccc2c1NC(=O)c1csc2c(N)ncnc12 [Belvarafenib]", "BRAF V600E (Homo sapiens, UniProt P15056, V600E)", 6.71),
]

----------
Target: ARAF G377R (Homo sapiens, UniProt P10398, G377R)
Sequence (P10398 1-606 G377R): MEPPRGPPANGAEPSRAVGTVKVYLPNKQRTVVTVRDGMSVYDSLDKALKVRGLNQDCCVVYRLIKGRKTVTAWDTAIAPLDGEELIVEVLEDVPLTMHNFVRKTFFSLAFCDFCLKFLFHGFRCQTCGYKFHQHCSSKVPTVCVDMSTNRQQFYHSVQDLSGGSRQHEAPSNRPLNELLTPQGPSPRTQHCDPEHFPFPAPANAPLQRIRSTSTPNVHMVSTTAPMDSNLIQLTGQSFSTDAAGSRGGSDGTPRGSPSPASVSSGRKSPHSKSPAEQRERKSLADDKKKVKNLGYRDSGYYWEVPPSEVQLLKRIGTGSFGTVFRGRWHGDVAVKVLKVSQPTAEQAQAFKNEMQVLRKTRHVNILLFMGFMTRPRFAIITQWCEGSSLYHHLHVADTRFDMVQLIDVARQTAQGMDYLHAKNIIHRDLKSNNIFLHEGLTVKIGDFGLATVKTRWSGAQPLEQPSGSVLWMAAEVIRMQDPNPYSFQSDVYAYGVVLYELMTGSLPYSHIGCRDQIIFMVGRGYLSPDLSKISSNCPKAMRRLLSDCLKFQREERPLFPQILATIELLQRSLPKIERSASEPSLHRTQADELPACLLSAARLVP
Assay: PanQinase flash plate-based kinase assay
pIC50: −log10 of the molar value.
PARAMETER MEASURED: pIC50

# COMPOUND, VAL
records = [
    ("O=C1CCc2c(Oc3ccc4c(c3)CC(c3ncc(-c5ccc(F)cc5)[nH]3)CO4)ccnc2N1 (stereo not drawn)", 6.85),
    ("Cc1ccc2c(Nc3cccc(Cl)c3F)nccc2c1NC(=O)c1csc2c(N)ncnc12", 6.12),
    ("Cc1ccc(NC(=O)c2ccnc(C(F)(F)F)c2)cc1-c1cc(OCCO)nc(N2CCOCC2)c1", 6.21),
]

----------
Here, each record is paired with measured pIC50 data.
Molecular target: ARAF del 347_348 G387D (Homo sapiens, UniProt P10398, DEL347-348/G387D)
Sequence (P10398 with tags, fused parts or gaps DEL347-348/G387D): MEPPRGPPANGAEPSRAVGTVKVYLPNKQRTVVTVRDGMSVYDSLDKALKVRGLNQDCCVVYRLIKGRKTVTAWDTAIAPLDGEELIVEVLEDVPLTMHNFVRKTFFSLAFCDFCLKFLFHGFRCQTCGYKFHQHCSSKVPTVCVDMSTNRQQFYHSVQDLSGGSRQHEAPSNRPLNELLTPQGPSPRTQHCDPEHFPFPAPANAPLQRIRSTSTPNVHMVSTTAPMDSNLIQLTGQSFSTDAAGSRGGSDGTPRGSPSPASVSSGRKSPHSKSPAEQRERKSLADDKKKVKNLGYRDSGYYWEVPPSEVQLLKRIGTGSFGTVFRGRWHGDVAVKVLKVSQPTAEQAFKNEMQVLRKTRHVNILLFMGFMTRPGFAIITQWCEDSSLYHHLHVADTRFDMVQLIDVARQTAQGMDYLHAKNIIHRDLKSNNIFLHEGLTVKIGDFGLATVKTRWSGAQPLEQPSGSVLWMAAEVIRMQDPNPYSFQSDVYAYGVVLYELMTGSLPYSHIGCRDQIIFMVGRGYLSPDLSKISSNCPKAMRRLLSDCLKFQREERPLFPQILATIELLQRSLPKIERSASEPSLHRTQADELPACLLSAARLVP
Experiment: PanQinase flash plate-based kinase assay
pIC50: −log10 of the molar value.

# MOLECULE, TARGET OR TEST SYSTEM, pIC50
records = [
    ("O=C1CCc2c(Oc3ccc4c(c3)CC(c3ncc(-c5ccc(F)cc5)[nH]3)CO4)ccnc2N1 (stereo not drawn)", "ARAF del 347_348 G387D (Homo sapiens, UniProt P10398, DEL347-348/G387D)", 7.69),
    ("Cc1ccc(NC(=O)c2ccnc(C(F)(F)F)c2)cc1-c1cc(OCCO)nc(N2CCOCC2)c1", "ARAF del 347_348 G387D (Homo sapiens, UniProt P10398, DEL347-348/G387D)", 7.17),
    ("Cc1ccc2c(Nc3cccc(Cl)c3F)nccc2c1NC(=O)c1csc2c(N)ncnc12", "ARAF del 347_348 G387D (Homo sapiens, UniProt P10398, DEL347-348/G387D)", 7.33),
]

----------
pIC50: −log10 of the molar value.
// values below are pIC50; system is BRAF WT (Homo sapiens)
Sequence (P15056 whole entry): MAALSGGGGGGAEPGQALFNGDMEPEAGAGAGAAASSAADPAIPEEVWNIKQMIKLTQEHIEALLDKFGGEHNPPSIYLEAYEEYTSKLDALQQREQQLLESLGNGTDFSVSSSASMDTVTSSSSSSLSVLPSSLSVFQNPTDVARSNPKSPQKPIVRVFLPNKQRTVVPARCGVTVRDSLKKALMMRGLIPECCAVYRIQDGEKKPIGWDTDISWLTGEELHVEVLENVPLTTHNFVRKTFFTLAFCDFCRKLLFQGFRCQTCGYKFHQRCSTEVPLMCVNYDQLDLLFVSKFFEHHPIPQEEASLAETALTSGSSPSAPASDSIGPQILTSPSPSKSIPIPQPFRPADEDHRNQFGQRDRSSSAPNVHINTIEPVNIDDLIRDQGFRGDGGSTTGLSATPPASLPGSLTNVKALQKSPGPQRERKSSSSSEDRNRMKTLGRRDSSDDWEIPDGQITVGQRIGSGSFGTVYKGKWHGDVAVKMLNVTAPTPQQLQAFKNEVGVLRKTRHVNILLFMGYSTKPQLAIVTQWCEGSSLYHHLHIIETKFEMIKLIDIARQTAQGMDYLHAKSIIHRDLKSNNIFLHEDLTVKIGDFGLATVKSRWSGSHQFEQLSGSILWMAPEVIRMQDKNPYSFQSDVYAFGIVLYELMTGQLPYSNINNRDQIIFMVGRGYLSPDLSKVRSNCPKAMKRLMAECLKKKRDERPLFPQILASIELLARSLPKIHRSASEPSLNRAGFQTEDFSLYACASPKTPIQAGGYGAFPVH
PARAMETER MEASURED: pIC50

# MOLECULE, VAL
data = [
    ("Cc1ccc(NC(=O)c2ccnc(C(F)(F)F)c2)cc1-c1cc(OCCO)nc(N2CCOCC2)c1 [Naporafenib]", 6.85),
    ("Cc1ccc2c(Nc3cccc(Cl)c3F)nccc2c1NC(=O)c1csc2c(N)ncnc12 [Belvarafenib]", 7.01),
    ("O=C1CCc2c(Oc3ccc4c(c3)CC(c3ncc(-c5ccc(F)cc5)[nH]3)CO4)ccnc2N1 (stereo not drawn) [Compound I]", 7.39),
]

----------
Biological target: CRAF WT (Homo sapiens, UniProt P04049, Y340D/Y341D)
Sequence (P04049 307-648 Y340D/Y341D): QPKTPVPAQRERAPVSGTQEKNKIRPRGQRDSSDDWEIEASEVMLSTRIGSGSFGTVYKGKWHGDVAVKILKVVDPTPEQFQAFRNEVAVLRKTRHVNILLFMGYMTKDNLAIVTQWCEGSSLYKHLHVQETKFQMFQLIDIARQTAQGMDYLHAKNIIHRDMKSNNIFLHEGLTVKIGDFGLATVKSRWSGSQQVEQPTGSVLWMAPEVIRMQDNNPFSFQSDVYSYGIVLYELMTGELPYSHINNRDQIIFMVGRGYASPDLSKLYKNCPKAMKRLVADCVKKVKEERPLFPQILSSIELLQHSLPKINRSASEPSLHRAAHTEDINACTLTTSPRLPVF
Test: PanQinase flash plate-based kinase assay
PARAMETER MEASURED: IC50 (nM)

# COMPOUND, PARAMETER MEASURED, VAL
rows = [
    ("O=C1CCc2c(Oc3ccc4c(c3)CC(c3ncc(-c5ccc(F)cc5)[nH]3)CO4)ccnc2N1 (stereo not drawn)", "IC50", 2.3),
    ("Cc1ccc(NC(=O)c2ccnc(C(F)(F)F)c2)cc1-c1cc(OCCO)nc(N2CCOCC2)c1", "IC50", 9.7),
    ("Cc1ccc2c(Nc3cccc(Cl)c3F)nccc2c1NC(=O)c1csc2c(N)ncnc12", "IC50", 9.1),
]

All figures here come from patent US20260232643A1.
